Cited source for all entries: PubChem BioAssay (NCI)

- System: NCI/ADR-RES ovarian
- experiment: NCI tumour cell line growth inhibition, 48 h; in the data active = GI50 below about 0.43 µM; inactive = the rest
API: response.call in active, inactive

Field: example entries. Status: answers known.
testSmiles	studySystem	group
CCN(Cc1ccc(OC)cc1)c1ccc(CO)c(Cl)c1	NCI/ADR-RES ovarian	inactive
CC(C)=CCC/C(C)=C/CC/C(C)=C/CSC[C@H](NC(=O)CCCCCN1CCN(C)CC1)C(=O)NC1CCCCCC1	NCI/ADR-RES ovarian	inactive
ClC1=C(Cl)C(Cl)(C2(Cl)C(Cl)=C(Cl)C(Cl)=C2Cl)C(Cl)=C1Cl	NCI/ADR-RES ovarian	inactive

Query: For CCOc1ccc(N(C)c2ccc(/C=C/C3=[N+](C)c4ccccc4C3(C)C)cc2)cc1 , what call appears in the results of this test?
Result: inactive

Query: Please let me know the test result on file for O=c1[nH]c2ccccc2n1C1CCNCC1 .
Result: inactive

Query: Test call for this molecule, please: Cc1c(Cl)cccc1C(=O)Nc1nc2c(s1)CN(C(=O)Nc1cccc(C(F)(F)F)c1)CC2
Result: active
